Taken from paper PMC3760505.

Molecular target: UniProt Q95PM0
Sequence (Q95PM0 1-450): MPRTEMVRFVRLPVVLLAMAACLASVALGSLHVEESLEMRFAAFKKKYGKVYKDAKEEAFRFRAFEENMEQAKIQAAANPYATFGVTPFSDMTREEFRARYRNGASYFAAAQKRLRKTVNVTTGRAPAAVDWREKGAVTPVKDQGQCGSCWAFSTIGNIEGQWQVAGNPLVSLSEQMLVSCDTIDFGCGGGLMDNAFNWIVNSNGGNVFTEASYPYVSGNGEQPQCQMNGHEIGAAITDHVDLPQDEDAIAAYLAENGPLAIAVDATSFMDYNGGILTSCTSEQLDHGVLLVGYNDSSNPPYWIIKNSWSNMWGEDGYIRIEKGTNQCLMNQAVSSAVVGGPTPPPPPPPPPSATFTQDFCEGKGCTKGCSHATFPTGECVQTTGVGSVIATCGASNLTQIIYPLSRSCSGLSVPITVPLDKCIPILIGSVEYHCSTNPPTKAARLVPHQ
Test: biochemical
Details: read-out: rhodesain inhibition kinetics kinact/Ki
readout-label: log10 kinact/KI (log10 of the value in M⁻¹ s⁻¹)
Plainly stated, the numbers are log10 of kinact/KI given in M⁻¹ s⁻¹.

Please review the following examples before continuing.
INSERT INTO measurements (compound, assay_system, observed) VALUES
  ('Cc1nc(-c2ccccc2)sc1C(=O)N[C@H](/C=C/S(=O)(=O)c1ccccc1)CCc1ccccc1 [3a]', 'UniProt Q95PM0', 4.92),
  ('Cc1nc(-c2cnccn2)sc1C(=O)N[C@H](/C=C/S(=O)(=O)c1ccccc1)CCc1ccccc1 [3c]', 'UniProt Q95PM0', 4.40),
  ('O=C(N[C@H](/C=C/S(=O)(=O)c1ccccc1)CCc1ccccc1)[C@H]1CCCC[C@@H]1C(=O)c1ccc(Cl)cc1 [7b]', 'UniProt Q95PM0', 3.33);

### Prompt Report log10 kinact/KI for O=C(N[C@H](/C=C/S(=O)(=O)c1ccccc1)CCc1ccccc1)[C@@H]1CCCC[C@H]1C(=O)c1ccc(Cl)cc1 [7a] please.
### Response 3.99

### Prompt Same read-out for O=C(N[C@H](/C=C/S(=O)(=O)c1ccccc1)CCc1ccccc1)c1cc(-c2ccncc2)no1 [4b] ?
### Response 3.93

### Prompt Same read-out for O=C(N[C@H](/C=C/S(=O)(=O)c1ccccc1)CCc1ccccc1)c1cc(-c2ccccn2)no1 [4d] ?
### Response 3.89

### Prompt Same read-out for O=C(N[C@H](/C=C/S(=O)(=O)c1ccccc1)CCc1ccccc1)c1cc(-c2ccccc2)no1 [4a] ?
### Response 3.56
